Every entry's value here was drawn from the supplement of paper PMC13380429.

# Test system: Vero E6 infected with SARS-CoV-2
# METHOD NOTES: inhibition of SARS-CoV-2 cytopathic effect; higher = more antiviral protection, active = above 15
# EXPERIMENTAL CONTEXT: 8.33 nM; 48 h
Each entry below carries its recorded inhibition of SARS-CoV-2 cytopathic effect.
RECORDED METRIC: inhibition of SARS-CoV-2 cytopathic effect

COMPOUND | TESTED TARGET | RESULT
Nc1nc(-c2ccc(Cl)c(Cl)c2)c(-c2ccncc2)s1 | Vero E6 infected with SARS-CoV-2 | 1.18% (inactive)
Nc1ccc(C(=O)Oc2ccccc2)c(O)c1 [phenyl-aminosalicylate] | Vero E6 infected with SARS-CoV-2 | -5.77% (inactive)
Nc1nc2[nH]cnc2c(=S)[nH]1 | Vero E6 infected with SARS-CoV-2 | -0.26% (inactive)
Cc1cccc(-c2[nH]c(C(C)(C)C)nc2-c2ccc3c(c2)OCO3)n1 | Vero E6 infected with SARS-CoV-2 | -0.29% (inactive)
CCn1cc(C(=O)O)c(=O)c2cc(F)c(N3CCNC(C)C3)c(F)c21 (stereo not given) | Vero E6 infected with SARS-CoV-2 | -0.12% (inactive)

----------
# System: Vero E6 infected with SARS-CoV-2
# METHOD NOTES: inhibition of SARS-CoV-2 cytopathic effect; higher = more antiviral protection, active = above 15
# EXPERIMENTAL CONTEXT: 100 nM; 48 h
Outcomes: active, inactive

COMPOUND | ASSIGNED CATEGORY
COc1ccc(/C=C/C(=O)/C=C(O)/C=C/c2ccc(OC)c(OC)c2)cc1OC | inactive
CN[C@H](C(=O)N[C@H](C(=O)N(C)[C@H](/C=C(\C)C(=O)O)C(C)C)C(C)(C)C)C(C)(C)c1ccccc1 | inactive
O=C(O)CCNC(=O)c1ccccc1 | inactive
CC1=C(/C=C/C(C)=C/C=C/C(C)=C/C=C/C=C(C)/C=C/C=C(C)/C=C/C2=C(C)CCCC2(C)C)C(C)(C)CCC1 | inactive
CC(C)C[C@H](NC(=O)CNC(=O)c1cc(Cl)ccc1Cl)B1OC(=O)C(CC(=O)O)(CC(=O)O)O1 | active
S=C=Nc1ccc(N=C=S)cc1 [bitoscanate] | inactive
Cc1c(C)c2c(c(C)c1O)CC[C@@](C)(CCC[C@H](C)CCC[C@H](C)CCCC(C)C)O2 | inactive
Cn1cc(-c2ccc3c(c2)CCN3C(=O)Cc2cccc(C(F)(F)F)c2)c2c(N)ncnc21 | inactive
CC(=O)N[C@@H](CC(C)C)C(=O)O | inactive
CNCCc1ccc(O)c(O)c1 [deoxyepinephrine] | inactive
CN1[C@@H]2CC[C@H]1C[C@@H](OC1c3ccccc3CCc3ccccc31)C2 | inactive
Cc1ccccc1NC(=N)Nc1ccccc1C | inactive
O=C(CN1CCN(C(=O)c2ccco2)CC1)Nc1cc(C(F)(F)F)ccc1Cl | inactive
O=C(/C=C/c1ccc2ccccc2n1)c1ccncc1 | inactive
COc1cc(Nc2nc3ccccc3nc2NS(=O)(=O)c2ccc(NC(=O)c3ccc(C)c(OC)c3)cc2)cc(OC)c1 | inactive
CN1c2c([nH]c(N)nc2=O)NC[C@@H]1CNc1ccc(C(=O)N[C@@H](CCC(=O)O)C(=O)O)cc1 | inactive
CCn1cc(C(=O)O)c(=O)c2cc3c(cc21)OCO3 | inactive
Cc1c(S(=O)(=O)O)oc2c1C(=O)C(=O)c1c-2ccc2c1CCCC2(C)C [sodium-tanshinone-II-A-sulfonate] | inactive
N[C@@H](Cc1c[nH]c2ccccc12)C(=O)O | inactive
CC[C@H]1OC(=O)[C@@](C)(F)C(=O)[C@H](C)[C@@H](O[C@@H]2O[C@H](C)C[C@H](N(C)C)[C@H]2O)[C@](C)(OC)C[C@@H](C)C(=O)[C@H](C)[C@H]2N(CCCCn3cc(-c4cccc(N)c4)nn3)C(=O)O[C@]12C | inactive
N=C(N)NC(=N)Nc1ccccc1 [1-phenylbiguanide] | inactive
NCCCC[C@H](N[C@@H](CCc1ccccc1)C(=O)O)C(=O)N1CCC[C@H]1C(=O)O | inactive
NC(=O)C(c1ccccc1)(c1ccccc1)[C@@H]1CCN(CCc2ccc3c(c2)CCO3)C1 | inactive
COc1cc(-c2cc(-c3cccc(O)c3)cnc2N)cc(OC)c1OC | inactive
O=C(O)c1ccc(-c2c[nH]c3ncc(-c4ccccc4)cc23)cc1C1CCCC1 | inactive
CCc1ccc(/C=C2/SC(=S)NC2=O)cc1 | inactive
CC(=O)/N=c1/sc(S(N)(=O)=O)nn1C [methazolamide] | inactive
Cc1ccc(-c2ncn(-c3ccc(Nc4nccc(-c5cccc(N6CCOCC6)c5)n4)cc3)n2)cn1 | inactive
O=P(O)(O)C(O)(Cn1ccnc1)P(=O)(O)O | inactive
N#C/C(=C1/SCC(c2ccccc2Cl)S1)n1ccnc1 (stereo unspecified) | inactive
O=C(NOCCO)c1ccc2cncn2c1Nc1ccc(I)cc1F | inactive
c1ccc(Oc2nc(NC3CCCCC3)c3[nH]cnc3n2)cc1 | inactive
CCS(=O)(=O)N1CCN(c2ccc(Nc3ncc(C(N)=O)c(NC4CC4)n3)cc2)CC1 | inactive
CN(C)CC(=O)Nc1ccc2[nH]c(=O)c3ccccc3c2c1 | inactive
CC(C)(Oc1ccc(CCNC(=O)c2ccc(Cl)cc2)cc1)C(=O)O [bezafibrate] | inactive
c1ccc2c(Cc3c[nH]c4ccccc34)c[nH]c2c1 | inactive
